Attribution: the supplement of paper PMC10201428

B1: library; a variant is named by its letters at N, in order (parent)
chain: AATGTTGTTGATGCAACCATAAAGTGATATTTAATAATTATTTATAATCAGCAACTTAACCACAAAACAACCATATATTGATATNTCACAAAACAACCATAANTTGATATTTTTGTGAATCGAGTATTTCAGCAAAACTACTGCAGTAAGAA

variants of: B1; assay: relative integration efficiency (T-LR orientation) vs wild-type transposon end (log2 (normalized fold change)); transposon end mutated: left end; higher = more efficient transposition; details: with VchCAST RNA-guided transposition machinery (E. coli BL21(DE3) host, lacZ target)
measurementType: relative integration efficiency (log2)
Numbers only.

CG A64C A65C A66C A67C    -0.691
CG A36T A37T T38A T39A    0.111
CA G24A T30A A96C T112G T113C    0.199
CG A91C    -0.299
CG A95C A96C    -0.693
CG T12A G13A T30A T31C T32A T86G    -0.319
CG A92T A93T C94G A95T    -3.64
CG T116A G117C A118T A119T    0.00543

Record relative integration efficiency (log2) for all entries; do not skip any.
1. CG A118G
2. TA A23G G24T A33T A70C T76A T84A C87A A102T T111C T113C
3. CG A11C
4. TA A16C G24T T32G A33C T76A A77G C87T A102T T111C T113C

1. -0.0561
2. -0.166
3. 0.113
4. -1.56

State the recorded relative integration efficiency (log2) for every item in the following list.
1. CG C98G A99T
2. CG A2C
3. CG C89G

-1.62
0.61
0.0739
